Measured Emax, listed per entry for reference.
TARGET: abc isoform of human TMEM16A channel expressed in CHO cells (Homo sapiens, UniProt Q5XXA6, DEL476-501)
Construct: expressed in transfected cells; host or cells: CHO cells, doxycycline-inducible expression under Blasticidin/Zeocin selection
MEASUREMENT PROTOCOL: Automated patch clamping (QPatch) assay to measure TMEM16A activity in whole-cell
Type: cell-based
EXPERIMENTAL CONTEXT: CHO, maximum current at highest dose relative to reference potentiator at maximal concentration (upper limit) and vehicle (lower limit); read-out: TMEM16A QPATCH assay EC50 V3 Assay Window (% TMEM16A max activation)
Structures can show the parent of a compound that is named as a salt.
Write down the numeric answer in % and omit the unit.

{"columns": ["MOLECULE", "ENDPOINT", "RECORDED NUMBER"],
 "data": [
  ["CCC(CC)NC(=O)c1cc(-c2cccc(-c3ncc(C(=O)Nc4cc(C)cc(C)c4)o3)c2)[nH]n1", "Emax", 82],
  ["CCC(CC)NC(=O)c1cc(-c2cccc(-c3ncc(C(=O)N[C@@H](CC(C)C)C(=O)OC)o3)c2)[nH]n1", "Emax", 91],
  ["CCOC(=O)[C@H](Cc1ccccc1)NC(=O)c1cc(-c2cccc(-c3ncc(C(=O)NC(CC)CC)o3)c2)[nH]n1", "Emax", 80],
  ["CCOC(=O)[C@H](NC(=O)c1cc(-c2cccc(-c3ncc(C(=O)NC(CC)CC)o3)c2)[nH]n1)c1ccccc1 [Example 3.59, Trifluoroacetate]", "Emax", 106],
  ["CCC(CC)NC(=O)c1cnc(-c2cccc(-c3cc(C(=O)Nc4cccc(OC(C)C)c4)n[nH]3)c2)o1", "Emax", 74]
]}

Record summary for CCOC(=O)C1(C)CCN(C(=O)c2cc(-c3cccc(-c4ncc(C(=O)NC(CC)CC)o4)c3)[nH]n2)C1 (stereo not drawn) : reported Emax = 82

Field Emax (entry COC(=O)[C@@H](NC(=O)c1cnc(-c2cccc(-c3nnc(C(=O)NC(C4CC4)C4CC4)[nH]3)c2)o1)C(C)C ) reads 134

Sure, the documented Emax for CCC(CC)NC(=O)c1cnc(-c2cccc(-c3cc(C(=O)NC(COC)C4CC4)n[nH]3)c2)o1 (stereo not drawn) is 140

Just so you know, measured Emax for CCC(CC)NC(=O)c1cnc(-c2cccc(-c3cc(C(=O)N4CCCC(C)(C)C4)n[nH]3)c2)o1 came out at 72

====

TARGET: abc isoform of human TMEM16A channel expressed in CHO cells (Homo sapiens, UniProt Q5XXA6, DEL476-501)
Construct: expressed in transfected cells; host or cells: CHO cells, doxycycline-inducible expression under Blasticidin/Zeocin selection
Sequence (Q5XXA6 with tags, fused parts or gaps isoform Q5XXA6-5 DEL539-564): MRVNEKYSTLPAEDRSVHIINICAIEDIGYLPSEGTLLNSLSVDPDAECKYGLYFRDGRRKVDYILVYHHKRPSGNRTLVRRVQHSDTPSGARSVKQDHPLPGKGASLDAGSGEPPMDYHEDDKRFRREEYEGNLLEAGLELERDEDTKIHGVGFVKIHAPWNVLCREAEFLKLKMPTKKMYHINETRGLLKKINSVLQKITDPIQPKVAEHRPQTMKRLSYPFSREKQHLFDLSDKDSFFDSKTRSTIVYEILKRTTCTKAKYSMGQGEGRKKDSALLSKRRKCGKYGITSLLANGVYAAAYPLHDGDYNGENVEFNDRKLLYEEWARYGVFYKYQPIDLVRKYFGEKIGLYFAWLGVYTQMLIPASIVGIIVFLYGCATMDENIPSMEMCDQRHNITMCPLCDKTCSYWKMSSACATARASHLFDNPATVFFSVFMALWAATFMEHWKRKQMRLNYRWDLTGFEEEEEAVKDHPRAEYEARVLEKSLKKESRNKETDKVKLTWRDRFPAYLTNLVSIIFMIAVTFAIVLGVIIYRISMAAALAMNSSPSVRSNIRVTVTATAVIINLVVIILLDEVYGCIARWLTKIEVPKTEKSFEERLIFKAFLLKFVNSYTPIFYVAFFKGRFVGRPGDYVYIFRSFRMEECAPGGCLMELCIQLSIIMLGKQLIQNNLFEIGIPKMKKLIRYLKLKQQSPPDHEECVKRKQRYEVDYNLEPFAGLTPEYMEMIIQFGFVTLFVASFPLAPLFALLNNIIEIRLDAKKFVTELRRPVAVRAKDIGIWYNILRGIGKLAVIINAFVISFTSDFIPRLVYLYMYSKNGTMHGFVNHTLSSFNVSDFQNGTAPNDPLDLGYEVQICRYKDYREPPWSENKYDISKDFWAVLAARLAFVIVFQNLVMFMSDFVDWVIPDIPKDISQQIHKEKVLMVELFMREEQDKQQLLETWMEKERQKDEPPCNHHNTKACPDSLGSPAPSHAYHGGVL
MEASUREMENT PROTOCOL: Automated patch clamping (QPatch) assay to measure TMEM16A activity in whole-cell
Type: cell-based
EXPERIMENTAL CONTEXT: CHO, maximum current at highest dose relative to reference potentiator at maximal concentration (upper limit) and vehicle (lower limit); read-out: TMEM16A QPATCH assay EC50 V3 Assay Window (% TMEM16A max activation)
Counter-ions that a name gives are not always drawn.
ENDPOINT: Emax (%)
Kindly answer with a numeric value in %, unit omitted.

{"columns": ["COMPOUND", "UNIT DESCRIPTOR", "Emax"],
 "data": [
  ["CCC(CC)NC(=O)c1cnc(-c2cccc(-c3cc(C(=O)N[C@H](C)c4ccccc4)n[nH]3)c2)o1", "%", 68],
  ["CCC(CC)NC(=O)c1cnc(-c2cccc(-c3cc(C(=O)NCC4(C)CC4)n[nH]3)c2)o1", "%", 70],
  ["CCOC(=O)[C@@H](NC(=O)c1cnc(-c2cccc(-c3cc(C(=O)NC(C4CC4)C(F)(F)F)[nH]n3)c2)o1)C(C)C (single isomer, unassigned)", "%", 86],
  ["CCC(CC)NC(=O)c1cnc(-c2cccc(-c3cc(C(=O)NCc4ccc(F)cc4)n[nH]3)c2)o1", "%", 81],
  ["CCC(CC)NC(=O)c1cnc(-c2cccc(-c3nc(C(=O)NC(CC)CC)n(CCN(C)C)n3)c2)o1", "%", 61],
  ["C[C@H](NC(=O)c1nnc(-c2cccc(-c3ncc(C(=O)N[C@@H](C)C4CC4)o3)c2)[nH]1)C1CC1", "%", 63],
  ["CCC(CC)NC(=O)c1cnc(-c2cccc(-c3cc(C(=O)NC(C)(C4CC4)C(F)(F)F)n[nH]3)c2)o1 (stereo not drawn)", "%", 99],
  ["CCC(CC)NC(=O)c1cnc(-c2cccc(-c3cc(C(=O)N[C@@H](C)C(=O)OCc4ccccc4)n[nH]3)c2)o1 [Example 3.64, Trifluoroacetate]", "%", 72],
  ["CCC(CC)NC(=O)c1cc(-c2cccc(-c3ncc(C(=O)NCc4c(F)cccc4F)o3)c2)[nH]n1", "%", 70],
  ["C[C@H](NC(=O)c1cnc(-c2cccc(-c3nnc(C(=O)N[C@H](C)C4CC4)[nH]3)c2)o1)C1CC1", "%", 74]
]}

get_value(item= CCC(CC)NC(=O)c1cnc(-c2cccc(-c3cc(C(=O)NC(C)(C)C)n[nH]3)c2)o1 , readout=Emax) returns 84

Emax reading for CCC(CC)NC(=O)c1cnc(-c2cccc(-c3nnc(C(=O)N[C@@H](C)C4CC4)[nH]3)c2)o1 : 177

The compound listed as CCC(CC)NC(=O)c1cc(-c2cccc(-c3ncc(C(=O)NCc4ccc(F)cc4)o3)c2)[nH]n1 has a reported Emax of 94

====

The following compounds are shown together with reported Emax values.
TARGET: abc isoform of human TMEM16A channel expressed in CHO cells (Homo sapiens, UniProt Q5XXA6, DEL476-501)
Construct: expressed in transfected cells; host or cells: CHO cells, doxycycline-inducible expression under Blasticidin/Zeocin selection
MEASUREMENT PROTOCOL: Automated patch clamping (QPatch) assay to measure TMEM16A activity in whole-cell
Assay type: cell-based
EXPERIMENTAL CONTEXT: CHO, maximum current at highest dose relative to reference potentiator at maximal concentration (upper limit) and vehicle (lower limit); read-out: TMEM16A QPATCH assay EC50 V3 Assay Window (% TMEM16A max activation)
Express the result in % but write the number alone.

Lab note: CCC(CC)NC(=O)c1cnc(-c2cccc(-c3cc(C(=O)NCc4c(F)cccc4F)n[nH]3)c2)o1 [Example 3.34] gave Emax of 77

Per the record, CCOC(=O)[C@H](CCSC)NC(=O)c1cnc(-c2cccc(-c3cc(C(=O)NC(CC)CC)n[nH]3)c2)o1 [Example 1.14] has Emax of 111

====

TARGET: abc isoform of human TMEM16A channel expressed in CHO cells (Homo sapiens, UniProt Q5XXA6, DEL476-501)
Sequence (Q5XXA6 with tags, fused parts or gaps isoform Q5XXA6-5 DEL539-564): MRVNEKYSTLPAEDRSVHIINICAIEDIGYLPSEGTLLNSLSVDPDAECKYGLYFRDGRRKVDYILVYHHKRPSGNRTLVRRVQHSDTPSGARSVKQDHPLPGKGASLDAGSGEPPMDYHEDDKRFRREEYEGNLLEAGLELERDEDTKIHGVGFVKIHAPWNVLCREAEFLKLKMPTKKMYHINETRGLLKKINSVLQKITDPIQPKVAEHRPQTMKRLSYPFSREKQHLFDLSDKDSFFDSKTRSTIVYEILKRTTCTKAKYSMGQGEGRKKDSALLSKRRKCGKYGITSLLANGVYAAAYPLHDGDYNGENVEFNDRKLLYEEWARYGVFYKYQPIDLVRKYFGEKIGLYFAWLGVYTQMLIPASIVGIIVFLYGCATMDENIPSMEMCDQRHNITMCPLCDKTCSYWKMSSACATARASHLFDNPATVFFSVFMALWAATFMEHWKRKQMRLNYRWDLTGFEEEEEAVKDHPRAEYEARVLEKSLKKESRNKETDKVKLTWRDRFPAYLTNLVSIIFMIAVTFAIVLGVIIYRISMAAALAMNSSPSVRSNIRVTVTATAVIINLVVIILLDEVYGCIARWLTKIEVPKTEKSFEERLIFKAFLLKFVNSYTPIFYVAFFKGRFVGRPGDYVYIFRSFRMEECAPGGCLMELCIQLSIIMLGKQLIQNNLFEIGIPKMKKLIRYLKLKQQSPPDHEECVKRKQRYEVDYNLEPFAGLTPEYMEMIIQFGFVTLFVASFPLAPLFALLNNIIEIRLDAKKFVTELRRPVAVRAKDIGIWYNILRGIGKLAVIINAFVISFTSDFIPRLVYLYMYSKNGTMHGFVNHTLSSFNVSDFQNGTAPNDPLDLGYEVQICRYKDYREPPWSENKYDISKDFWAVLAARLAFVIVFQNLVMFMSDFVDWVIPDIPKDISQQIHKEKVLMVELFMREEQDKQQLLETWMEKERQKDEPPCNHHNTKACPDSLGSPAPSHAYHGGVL
MEASUREMENT PROTOCOL: Automated patch clamping (QPatch) assay to measure TMEM16A activity in whole-cell
EXPERIMENTAL CONTEXT: CHO cells expressing human TMEM16A (abc), whole-cell automated patch clamp, Hill fit; read-out: TMEM16A QPATCH assay EC50 V3 EC50
pEC50: −log10 of the molar value.
Hi, to clarify the labels: 1 covers pEC50 from 7 upward, 0 covers anything below 7.

{"columns": ["MOLECULE", "ANSWER LABEL"],
 "data": [
  ["CCC(CC)NC(=O)c1nnc(-c2cccc(-c3ncc(C(=O)NC(CC)CC)o3)c2)[nH]1", 1],
  ["CCOC(=O)[C@H](Cc1ccccc1)NC(=O)c1cnc(-c2cccc(-c3cc(C(=O)NC(CC)CC)n[nH]3)c2)o1", 0],
  ["CCC(CC)NC(=O)c1cnc(-c2cccc(-c3cc(C(=O)NC(C4CC4)C4CCCO4)n[nH]3)c2)o1 (single isomer, unassigned) [Example 3.4 (iv)]", 0]
]}

stdin: Hi, just wondering whether CCC(CC)NC(=O)c1cc(-c2cccc(-c3ncc(C(=O)N[C@H](C)C(C)C)o3)c2)[nH]n1 shows pEC50 of 7 or higher.
stdout: 0

stdin: Identify whether the reported pEC50 of the following molecule is 7 or greater: C[C@H](NC(=O)c1cc(-c2cccc(-c3ncc(C(=O)N[C@H](C)C4CC4)o3)c2)nn1CC(O)C(F)(F)F)C1CC1 (stereo partly shown)
stdout: 0

stdin: # check: pEC50 of C[C@H](NC(=O)c1cc(-c2cccc(-c3ncc(C(=O)N[C@H](C)C4CC4)o3)c2)[nH]n1)C1CC1 is greater than or equal to 7
stdout: 0

stdin: Quick check: does CCOC(=O)[C@@H](NC(=O)c1nnc(-c2cccc(-c3ncc(C(=O)N[C@@H](C)C4CC4)o3)c2)[nH]1)C(C)C have pEC50 greater than or equal to 7?
stdout: 0

stdin: Could you tell me if the measured pEC50 of CCOC(=O)[C@@H](NC(=O)c1cnc(-c2cccc(-c3cc(C(=O)NC(C4CC4)C4CC4)[nH]n3)c2)o1)C(C)C reaches 7 or more?
stdout: 1

stdin: Does COC(=O)[C@@H](NC(=O)c1cnc(-c2cccc(-c3nnc(C(=O)N[C@@H](C)C4CC4)[nH]3)c2)o1)C(C)C have a reported pEC50 of at least 7?
stdout: 0

Data origin, for the record: patent US20220306617A1
